procedure-text: viability loss with induced miR-34 in A549 – imaging, A549 dox-inducible miR-34, nuclei and caspase counts, primary screen (AID 1347080)
particulars: A549 miR-34 inducible, Hoechst nuclei count, 48 h; measured here: relative caspase fold change +Dox/-Dox
For each entry below, report its fold change value.
Please give only the number in your answer, with no unit.

Query: Endpoint output: fold change of "CCCCC(C)(C)[C@H](O)/C=C/[C@H]1C=CC(=O)[C@@H]1CCCCCCC(=O)O" . Value?
Response: 1.69

Query: Need fold change, item Nc1nc(F)nc2c1ncn2C1OC(COP(=O)(O)O)C(O)C1O (centres undefined)
Response: 1.44

Query: Could you tell me which fold change is on file for "CCCCc1nc2ccn(CC(=O)N(C)C)c(=O)c2n1Cc1ccc(-c2ccccc2-c2nn[nH]n2)cc1" ?
Response: 0.927

Query: Quick one: fold change of "CC(C)(C)c1cc(C(=O)/C=C/c2ccc(C(=O)O)cc2)cc(C(C)(C)C)c1" ?
Response: 1.56

Query: What does the data say about its fold change? Entry: "C=CC[N+]1([C@H]2C[C@H]3[C@@H]4CC[C@H]5C[C@H](O)[C@@H](N6CCOCC6)C[C@]5(C)[C@H]4CC[C@]3(C)[C@H]2OC(C)=O)CCCC1"
Response: 1.54

Query: For the compound shown here, "CC(C)c1noc(N2CCC(COc3ccc(-c4ccc(S(C)(=O)=O)cc4)nc3)CC2)n1" , give the reported fold change.
Response: 1.55

Query: Which fold change reading was recorded for the compound "CCCCCCCCCCCCCCCCOC[C@H](COP(=O)([O-])OCC[N+](C)(C)C)OC(=O)CCCCCCCC(=O)O" ?
Response: 0.772

Query: Which fold change value belongs to "CN(C)C(=O)n1nnnc1Cc1ccc(-c2ccccc2)cc1" ?
Response: 1.05

Query: Request the reported fold change associated with COC(=O)[C@@H]1C2C[C@H]3c4[nH]c5ccccc5c4CCN3C[C@@H]2CC[C@@H]1O (some centres undefined)
Response: 2.92

----------
procedure-text: drug combination growth inhibition, ovarian cancer – cell-based, oncology-focused library, rucaparib conditional, profiling panel (AID 1508598)
particulars: patient-derived ovarian cancer cells, CellTiter-Glo viability, 144 h; at 5 µM; OCI-P5x cells; with rucaparib 20 µM; stronger effect = lower value; 100% = cells with rucaparib alone
Provide the reported viability of each item.
Lab book: enter the figure in %, no units written.

Query: I have this molecule here, "C[C@@H]1CN(CC(=O)Nc2ccc3c(c2)Cc2cccc(-c4cc(=O)cc(N5CCOCC5)o4)c2S3)C[C@H](C)O1" , and I need its recorded viability.
Response: 76.3

Query: Item under review: "CCOc1cc(N2CCC(O)CC2)ccc1Nc1ncc2c(n1)N(C)c1ccccc1C(=O)N2C" . Reported viability?
Response: 35.5

Query: Name the reported viability value associated with the molecule "CC(C)(C)c1cnc(CSc2cnc(NC(=O)C3CCNCC3)s2)o1"
Response: 20.3

Query: Requested field: viability. Item: "CC(C)[C@H](C(=O)Nc1ccc(C(=O)NO)cc1)c1ccccc1"
Response: 2.82

Query: Tell me the measured viability of COc1ccc(COc2cc3oc(=O)c4cc(C(C)O)ccc4c3cc2OC)cc1 (centres undefined) , please.
Response: 92.1

Query: Given "CCOc1ccn(-c2ccc(F)cc2)c(=O)c1C(=O)Nc1ccc(Oc2ccnc(N)c2Cl)c(F)c1" , state its recorded viability.
Response: 65.2

Query: Bench note: what viability did "Cn1cc(-c2ccc3nnc(C(F)(F)c4ccc5ncccc5c4)n3n2)cn1" show?
Response: 97

Query: Please report the recorded viability for "Fc1cc(-c2cccc3ncc(-c4cnn(C5CCNCC5)c4)nc23)cc(F)c1CN1CCOCC1" .
Response: 17.1

Query: Name the recorded viability for "Cn1c(=O)c(F)c(Nc2ccc(I)cc2F)c2c(=O)n(C[C@@H](O)CO)cnc21" .
Response: 2.17

----------
procedure-text: drug combination growth inhibition, ovarian cancer – cell-based, oncology-focused library, rucaparib conditional, profiling panel (AID 1508598)
particulars: patient-derived ovarian cancer cells, CellTiter-Glo viability, 144 h; at 0.313 µM; OCI-P5x cells; with rucaparib 20 µM; 100% = cells with rucaparib alone
Active and inactive are the calls of the source.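 Rule for the calls: active = normalized viability below 100% at a tested concentration; inactive = the rest.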
Result category, one only: class 1 (active), class 0 (inactive)

Query: // return assay outcome for COc1ccc(C2=NC(c3ccc(Cl)cc3)C(c3ccc(Cl)cc3)N2C(=O)N2CCNC(=O)C2)c(OC(C)C)c1 (stereo not given)
Response: class 1

Query: Could you kindly confirm the outcome this assay logged for "O=C(NC1CCNCC1)c1[nH]ncc1NC(=O)c1c(Cl)cccc1Cl" ?
Response: class 1

Query: What call does the record list for "C#Cc1cccc(Nc2ncnc3cc(OC)c(OCCCCCCC(=O)NO)cc23)c1" ?
Response: class 1

Query: Recorded test call requested for "c1ccc2c(CCNc3ccc(Nc4ccncc4)cc3)c[nH]c2c1"
Response: class 1

Query: Any idea what this test logged for "O=C(Nc1cccnc1)N1CCC(Cc2cccc(Oc3ccc(C(F)(F)F)cn3)c2)CC1" ?
Response: class 0

Query: Please share the test call associated with "O=S(=O)(O)CCSSCCS(=O)(=O)O" .
Response: class 0

Query: Identify the outcome logged in this assay for the molecule shown: "CCNC(=O)c1noc(-c2cc(C(C)C)c(O)cc2O)c1-c1ccc(CN2CCOCC2)cc1"
Response: class 1

Query: Per the assay record, what outcome was assigned to "CCN(CCO)CCCOc1ccc2c(Nc3cc(CC(=O)Nc4cccc(F)c4)[nH]n3)ncnc2c1" ?
Response: class 1

Query: Any idea what this test logged for "CNC(=O)c1ccc(C)c(-n2c(C)cc(OCc3ccc(F)cc3F)c(Br)c2=O)c1" ?
Response: class 0

Query: // outcome(item) with item = "Nc1ccccc1NC(=O)c1ccc(CNc2nccc(-c3cccnc3)n2)cc1"
Response: class 1

Query: What was the test verdict on "CCCCc1nc2cc(/C=C/C(=O)NO)ccc2n1CCN(CC)CC" ?
Response: class 1

Query: What was the test verdict on "CCOc1ccn(-c2ccc(F)cc2)c(=O)c1C(=O)Nc1ccc(Oc2ccnc(N)c2Cl)c(F)c1" ?
Response: class 1

Query: For "O=C(O)c1ccc2c(c1)nc(Nc1cccc(Cl)c1)c1ccncc12" , what call appears in the results of this test?
Response: class 1

Query: Would you mind telling me which call this test gave "CN(C)Cc1ccc(-c2nc3cccc4c3n2CCNC4=O)cc1" ?
Response: class 1

Query: What call does the record list for "CCOc1cc2ncc(C#N)c(Nc3ccc(F)c(Cl)c3)c2cc1NC(=O)/C=C/CN(C)C" ?
Response: class 1

Query: Recorded test call requested for O=C(O)CCC1CCC(c2cc(F)ccc2F)(S(=O)(=O)c2ccc(Cl)cc2)CC1 (stereo not given)
Response: class 1

Query: Field: outcome | Entry: "CNC(=O)c1cc(COc2nnc(Nc3ccc(Cl)cc3)c3ccoc23)ccn1"
Response: class 0

Query: Returns: the outcome recorded for "Cc1cc(CS(=O)(=O)c2ccccc2)cc(OCc2ccc(CN3CCC[C@@H]3CO)cc2)c1" in this assay.
Response: class 0

Query: How was "O=C(Nc1ccc(OC(F)(F)F)cc1)c1sccc1NCc1ccnc2ccccc12" classified in this test?
Response: class 0

Query: Which outcome did this test record for the molecule "CCN(CC)CCCCNc1ncc2cc(-c3cc(OC)cc(OC)c3)c(NC(=O)NC(C)(C)C)nc2n1" ?
Response: class 0

----------
Hi there, I'd appreciate the recorded SSMD for every entry that follows.
procedure-text: compounds altering HSF1 focus formation in cells – imaging, Selleck Cancer Library (AID 1347162)
particulars: human cells, HSF1 nuclear foci imaging, at 10 µM; measured here: HSF1 foci SSMD mean
In your answer, state the number alone without any accompanying words.

Query: Entry "CC(C)C[C@H](NC(=O)CNC(=O)c1cc(Cl)ccc1Cl)B(O)O" : reported SSMD = ?
Response: -0.17

Query: Reported SSMD for "CN(C)CC[C@H](CSc1ccccc1)Nc1ccc(S(=O)(=O)NC(=O)c2ccc(N3CCN(Cc4ccccc4-c4ccc(Cl)cc4)CC3)cc2)cc1[N+](=O)[O-]" : what is it?
Response: -3.9

Query: Item under review: "Cc1c(CCOc2ccc(C(=O)O)cc2)c2cc(Cl)ccc2n1C(c1ccccc1)c1ccccc1" . Reported SSMD?
Response: 2.36

Query: Tell me the measured SSMD of CC(C)C[C@H](NC(=O)CNC(=O)c1cc(Cl)ccc1Cl)B1OC(=O)CC(CC(=O)O)(C(=O)O)O1 (some centres undefined) , please.
Response: 2.92

Query: Any idea what its SSMD is? The compound is COc1ccc(C2CC(c3ccccc3)=NN2c2ccc(S(N)(=O)=O)cc2)cc1 (centres undefined)
Response: 2.07

Query: Request the reported SSMD associated with "Cc1nc(N)sc1-c1ccnc(Nc2ccc(N3CCOCC3)cc2)n1"
Response: 3.31

Query: Could you share which SSMD value was measured for "C[C@@H](Oc1cc(-c2cnn(C3CCNCC3)c2)cnc1N)c1c(Cl)ccc(F)c1Cl" ?
Response: -10.4

Query: Request the reported SSMD associated with "Nc1nc(N)c(N=O)c(OCC2CCCCC2)n1"
Response: 2.32

Query: Which SSMD value is on record for "C[C@@H]1CCN(C(=O)CC#N)C[C@@H]1N(C)c1ncnc2[nH]ccc12" ?
Response: 3.28
